The measured values listed here are drawn from ChEMBL document CHEMBL3632588.

test: Antiproliferative activity against mouse B16F0 cells assessed as cell growth at 20 uM after 72 hrs by colorimetry; format: functional; conditions: B16F0, 72 h, read-out: Activity
Reported growth at 20 µM by item:
Give just the number in %; leave the unit off.

Looking for the measured growth at 20 µM of COC(=O)[C@@H]1N2C(=O)[C@H](Cl)[C@H]2S[C@@]1(C)CSC1=NCCS1 , can you help?
71

And what about the compound COC(=O)[C@@H]1N2C(=O)[C@H](Cl)[C@H]2S[C@@]1(C)CSc1nc(-c2ccccc2)c(-c2ccccc2)o1 ?
65

Now the same for COC(=O)[C@@H]1N2C(=O)[C@H](Cl)[C@H]2S[C@@]1(C)CSc1nc2ccccc2s1
48

How about this compound: COC(=O)[C@@H]1N2C(=O)C(Br)(Br)[C@H]2S[C@@]1(C)CSc1nc(-c2ccccc2)c(-c2ccccc2)o1
38

Entry to check: COC(=O)[C@@H]1N2C(=O)[C@H](Cl)[C@H]2S[C@@]1(C)CSc1nc2ccccc2o1
68

Attention now turns to another entry.
Entry CCOc1ccc2nc(SC[C@]3(C)S[C@@H]4[C@@H](Cl)C(=O)N4[C@H]3C(=O)OC)sc2c1 has what growth at 20 µM?
52
